System: Staphylococcus aureus
Assay info: Antibacterial activity against Staphylococcus aureus ATCC 29213 by CLSI based agar dilution method
Assay type: functional
Quantity kind: MIC (µg/mL)
Numbers only, in µg/mL.

Sample records with MIC:
Smiles structure	MIC [µg/mL]
COc1ccc2nccc(CC[C@H]3OC[C@H](NC(=O)c4ccc5c(c4)NC(=O)CO5)CO3)c2c1	0.25
COc1ccc2nccc(CC[C@H]3OC[C@H](NC(=O)c4ccc5c(c4)OCCO5)CO3)c2c1	1

For every item in the list below, what is its measured MIC?
1. COc1ccc2nccc(CC[C@H]3OC[C@H](NC(=O)c4cccc(Cl)c4)CO3)c2c1
2. COc1ccc2nccc(CC[C@H]3OC[C@H](NC(=O)c4ccc(C(C)(C)C)cc4)CO3)c2c1

A.
2
0.25

----------
I'd be grateful if you could share measured INH for these entries.
Test system: K562
Assay info: Growth inhibition of human K562 cells incubated for 48 hrs by sulforhodamine B assay
Assay type: functional
Numbers only, in µM.

Sample records with INH:
COc1ccc2nccc(CC[C@H]3OC[C@H](NC(=O)c4ccc(Cl)cc4)CO3)c2c1 10
COc1ccc2nccc(CC[C@H]3OC[C@H](NC(=O)c4ccc(OC(F)(F)F)cc4)CO3)c2c1 11
COc1ccc2nccc(CC[C@H]3OC[C@H](NC(=O)c4ccc(C(C)(C)C)cc4)CO3)c2c1 8.4
COc1ccc2nccc(CC[C@H]3OC[C@H](NC(=O)c4ccc(C)cc4)CO3)c2c1 18

Kindly review the next compound as well.
Q. // INH lookup, key: COc1ccc2nccc(CC[C@H]3OC[C@H](NC(=O)c4ccc(C(F)(F)F)cc4)CO3)c2c1
A. 6.8

----------
Assayed system: Voltage-gated inwardly rectifying potassium channel KCNH2 (Homo sapiens, UniProt Q12809)
Sequence (Q12809 whole entry): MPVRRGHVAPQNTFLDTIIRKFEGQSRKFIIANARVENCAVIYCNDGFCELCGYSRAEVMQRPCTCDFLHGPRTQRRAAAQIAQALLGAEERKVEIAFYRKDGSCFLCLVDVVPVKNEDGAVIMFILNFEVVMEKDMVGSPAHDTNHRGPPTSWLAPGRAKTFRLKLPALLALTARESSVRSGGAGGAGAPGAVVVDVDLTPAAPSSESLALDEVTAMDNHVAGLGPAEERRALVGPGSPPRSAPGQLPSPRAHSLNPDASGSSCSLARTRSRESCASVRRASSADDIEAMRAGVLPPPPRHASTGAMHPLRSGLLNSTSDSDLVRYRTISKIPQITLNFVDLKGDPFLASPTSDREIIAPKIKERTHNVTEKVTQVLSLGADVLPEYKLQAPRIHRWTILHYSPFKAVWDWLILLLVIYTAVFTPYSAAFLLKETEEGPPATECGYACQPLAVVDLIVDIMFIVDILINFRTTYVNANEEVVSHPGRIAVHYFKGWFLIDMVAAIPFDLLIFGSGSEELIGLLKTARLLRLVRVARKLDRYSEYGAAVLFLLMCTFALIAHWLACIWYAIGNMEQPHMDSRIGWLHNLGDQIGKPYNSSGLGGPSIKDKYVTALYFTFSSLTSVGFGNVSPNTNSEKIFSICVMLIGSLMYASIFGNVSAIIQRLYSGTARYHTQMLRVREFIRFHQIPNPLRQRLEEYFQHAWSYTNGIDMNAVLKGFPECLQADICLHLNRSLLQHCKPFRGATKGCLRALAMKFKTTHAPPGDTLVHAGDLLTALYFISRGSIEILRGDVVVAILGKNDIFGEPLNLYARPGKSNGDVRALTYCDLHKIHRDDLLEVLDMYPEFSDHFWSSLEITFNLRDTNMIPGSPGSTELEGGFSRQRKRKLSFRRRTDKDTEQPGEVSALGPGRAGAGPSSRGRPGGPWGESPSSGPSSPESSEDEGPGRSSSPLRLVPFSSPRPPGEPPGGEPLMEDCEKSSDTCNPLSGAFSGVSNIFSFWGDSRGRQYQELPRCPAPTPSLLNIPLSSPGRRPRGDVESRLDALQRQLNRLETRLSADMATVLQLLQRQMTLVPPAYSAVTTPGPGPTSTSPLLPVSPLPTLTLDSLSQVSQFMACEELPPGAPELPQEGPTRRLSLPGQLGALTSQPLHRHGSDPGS
Assay info: Inhibition of human ERG
Setup conditions: human
Quantity kind: INH

Sample records with INH:
COc1ccc2nccc(CC[C@H]3OC[C@H](NC(=O)c4ccc(C(F)(F)F)cc4)CO3)c2c1 > 30 µM
COc1ccc2nccc(CC[C@H]3OC[C@H](NC(=O)c4ccc5c(c4)NC(=O)CS5)CO3)c2c1 > 30 µM
COc1ccc2nccc(CC[C@H]3OC[C@H](NC(=O)c4ccc5c(n4)NC(=O)CS5)CO3)c2c1 > 3 µM
COc1ccc2nccc(CC[C@H]3OC[C@H](NC(=O)c4ccc(C(C)(C)C)cc4)CO3)c2c1 5.2 µM
COc1ccc2nccc(CC[C@H]3OC[C@H](NC(=O)c4ccc5c(n4)NC(=O)CO5)CO3)c2c1 > 12 µM

For every item in the list below, what is its measured INH?
1. COc1ccc2nccc(CC[C@H]3OC[C@H](NC(=O)c4ccc(OC(F)(F)F)cc4)CO3)c2c1
2. COc1ccc2nccc(CC[C@H]3OC[C@H](NC(=O)c4ccc(Cl)cc4)CO3)c2c1
3. COc1ccc2nccc(CC[C@H]3OC[C@H](NC(=O)c4cccc(Cl)c4)CO3)c2c1
4. COc1ccc2nccc(CC[C@H]3OC[C@H](NC(=O)c4ccc(C)cc4)CO3)c2c1

A.
1. > 10 µM
2. 11 µM
3. > 3 µM
4. > 30 µM

----------
Test system: Staphylococcus aureus
Assay info: Antibacterial activity against Staphylococcus aureus 3527 by CLSI based agar dilution method
Assay type: functional
Quantity kind: MIC

Sample records with MIC:
Molecule	Assayed system	Assay value
COc1ccc2nccc(CC[C@H]3OC[C@H](NC(=O)C4COc5ccccc5C4)CO3)c2c1 (stereo not given in full)	Staphylococcus aureus	> 64 µg/mL
COc1ccc2nccc(CC[C@H]3OC[C@H](NC(=O)c4ccccc4Cl)CO3)c2c1	Staphylococcus aureus	> 256 µg/mL
COc1ccc2nccc(CC[C@H]3OC[C@H](NC(=O)C4CCNCC4)CO3)c2c1	Staphylococcus aureus	> 64 µg/mL
COc1ccc2nccc(CC[C@H]3OC[C@H](NC(=O)C4(C)CCCCC4)CO3)c2c1	Staphylococcus aureus	> 64 µg/mL

Kindly review the next molecule as well.
Q. // MIC lookup, key: COc1ccc2nccc(CC[C@H]3OC[C@H](NC(=O)c4ccc5c(n4)NC(=O)CS5)CO3)c2c1
A. 0.03 µg/mL
